System: TO-3-N3 (biotin conjugate)
METHOD DESCRIPTION: pull-down binding Z-score (relative to library population); higher = stronger binding
CONDITION DETAILS: RNA library: Library-2
Listing of entries alongside the reported pull-down binding Z-score.
MEASURED PARAMETER: pull-down binding Z-score

{"columns": ["SEQUENCE CODE", "STUDY TARGET", "NUMBER"],
 "data": [
  ["UGAGUGCUAUUUCAGUGCAACA [hsa-mir-362]", "TO-3-N3 (biotin conjugate)", 0.967],
  ["CAGCCUGGGGCAUCGGUUG [hsa-mir-5572]", "TO-3-N3 (biotin conjugate)", 2.41],
  ["GUGGAAGUGCCCACUGGUUCCA [hsa-mir-194-2]", "TO-3-N3 (biotin conjugate)", 0.425],
  ["ACUCCCAGAACUCAUUAAGUUGGUAGU [hsa-mir-1278]", "TO-3-N3 (biotin conjugate)", -0.0721],
  ["UGGGUAGAAUUCGAUCUGUCUAUCCA", "TO-3-N3 (biotin conjugate)", -0.51],
  ["GUGAUUACAUUAAAACUUAAAAUUUCAC [hsa-mir-4719]", "TO-3-N3 (biotin conjugate)", -0.0289],
  ["ACACUCUACGUGU", "TO-3-N3 (biotin conjugate)", -1.14],
  ["UGUUAAGGCAUGUUCAGGAACA [hsa-mir-1265]", "TO-3-N3 (biotin conjugate)", -0.0763],
  ["ACGUGGCUUUGGAGACUCCGUGGAGGAGGUCUUAUCAGAGGCACGU", "TO-3-N3 (biotin conjugate)", -0.105],
  ["GCCACUUGCGAAUUUUGUGGC", "TO-3-N3 (biotin conjugate)", 0.0442],
  ["CUGGAAUUGCCGUUUUAG [SHAPE_invivo_SARS-CoV-2_Motif_210]", "TO-3-N3 (biotin conjugate)", 0.0793],
  ["AGUGUUUGCCUAGGUUCUUUAAUCUACUCAACCGCU", "TO-3-N3 (biotin conjugate)", -0.346],
  ["CAGAGGCUGGCUUUCCAAAACUCUG [hsa-mir-1913]", "TO-3-N3 (biotin conjugate)", 0.996],
  ["GCCAUUGCCGGU [IAV_invivo_HA_4_Motif_15+IAV_invivo_HA_4_Motif_15]", "TO-3-N3 (biotin conjugate)", -0.443],
  ["UAUUCUCUAU [hsa-mir-2054]", "TO-3-N3 (biotin conjugate)", 0.52],
  ["UCAGUUUUGUAGCAUCAAAACU [hsa-mir-4521]", "TO-3-N3 (biotin conjugate)", -0.308],
  ["UAUUGCAAAGAUUUUCAAUA [hsa-mir-3915]", "TO-3-N3 (biotin conjugate)", -0.611]
]}

---

Tested on: TO-N3-2 (biotin conjugate)
METHOD DESCRIPTION: pull-down binding Z-score (relative to library population); higher = stronger binding
CONDITION DETAILS: RNA library: Library-2

{"columns": ["SEQUENCE CODE", "pull-down binding Z-score"],
 "data": [
  ["UAUAAAGUUUAUUAUGGUAAUGCUUUAGAUCAAGCCAUUUCCAUGUGGGCUCUUAUA", -0.695],
  ["CUUUUAUAUCAAGGCACAUAAAAG [hsa-mir-3910-1]", -1.17],
  ["GGCCGUUUGAGAUGUCC [hsa-mir-3674]", 0.0919],
  ["GCUGGGGACUGGAGAA [hsa-mir-4489]", 1.64],
  ["GGUGUUGCAGGAGCCUUAAAUAAGGCUACUAACAAUGCC [SHAPE_invivo_SARS-CoV-2_Motif_68]", -1.05],
  ["GCAUGAUGUUUCAUCUGC", -0.496],
  ["CUUGGCACCUUUGGCCUUAG [hsa-mir-4540]", -0.0687],
  ["CUGCAGGAAAGGGAAGACCAAGGCUUGCUGUCUGUCCAGUCUGCCACCCUACCCUGU [hsa-mir-1231]", 1.54],
  ["CAGCUGUUGUCUCCAGAGCAUUCCAGCUG [hsa-mir-191]", 1.46],
  ["GGAAUUGUGUUAAUUGUGAUACAUUCU [SHAPE_invitro_SARS-CoV-2_Motif_150]", -0.855],
  ["UGGUGCAAUAAUUGG [hsa-mir-1302-7]", 0.245],
  ["GCUUGCUGUUCCUCUCAACAGUAGUCAGGAAGC [hsa-mir-129-1]", -0.245],
  ["CAAUCAUGUAUAACUAAAUUUGAUUG [hsa-mir-514a-2_514a-3]", -1.74],
  ["CUCUCAUCGAUCUCCAAGAACUUGGAAAGUAUGAGCAG [SHAPE_invitro_SARS-CoV-2_Motif_456]", 0.281],
  ["UAGGUGGUCGAAGUCAUCCACA [hsa-mir-7153]", 0.498],
  ["UGUCACAUCAAUCUGACA", -0.472],
  ["CUAGGUUUUUCUAUGUACUUGG", -0.376],
  ["CAUGCAGGCCACACUGACGGUAACGUUGCAGG [hsa-mir-431]", 1.01],
  ["UGUGGUCACCCACUCU [hsa-mir-4316]", 0.297],
  ["CUCUCCUCCAGCUCAGCUGGUCAGGAGAG [hsa-mir-3160-1]", -0.0869],
  ["AAGGCCCUUGGGCACCCCAGGCCUU [hsa-mir-5700]", 0.656],
  ["UGAGCAUUUUUACUGAAUUGCCA [hsa-mir-6715a]", -0.686]
]}
